test system: B. subtilis ATCC 6633; experiment: MIC, double-microdilution, B. subtilis ATCC 6633; assay type: cell-based; settings: Table 4
Entries annotated with measured MIC B. subtilis ATCC 6633
Could you give me the number in µg/mL? Just the number is fine.

Solved entries:
NCC1OC(OC2C(C(=O)NCc3cn(CCCN4CCN(c5cc6c(cc5F)c(=O)c(C(=O)O)cn6C5CC5)CC4)nn3)OC(OC3C(O)C(N)CC(N)C3OC3OC(CN)C(O)C(O)C3N)C2O)C(N)C(O)C1O (stereo not drawn) = 6
NCC1OC(OC2C(C(=O)NCc3cn(Cc4cccc(CN5CCN(c6cc7c(cc6F)c(=O)c(C(=O)O)cn7C6CC6)CC5)c4)nn3)OC(OC3C(O)C(N)CC(N)C3OC3OC(CN)C(O)C(O)C3N)C2O)C(N)C(O)C1O (stereo not drawn) = 3
NCC1OC(OC2C(C(=O)NCc3cn(CCN4CCN(c5cc6c(cc5F)c(=O)c(C(=O)O)cn6C5CC5)CC4)nn3)OC(OC3C(O)C(N)CC(N)C3OC3OC(CN)C(O)C(O)C3N)C2O)C(N)C(O)C1O (stereo not drawn) = 3

**Query** Item: NCC1OC(OC2C(C(=O)NCc3cn(Cc4ccc(CN5CCN(c6cc7c(cc6F)c(=O)c(C(=O)O)cn7C6CC6)CC5)cc4)nn3)OC(OC3C(O)C(N)CC(N)C3OC3OC(CN)C(O)C(O)C3N)C2O)C(N)C(O)C1O (stereo not drawn) Test system: B. subtilis ATCC 6633 Read-out: MIC B. subtilis ATCC 6633 Value: ?
**Result** 3

**Query** // lookup MIC B. subtilis ATCC 6633 | system=B. subtilis ATCC 6633 | key= NCC1OC(OC2C(C(=O)Nc3ccc(-c4cn(CCCCCN5CCN(c6cc7c(cc6F)c(=O)c(C(=O)O)cn7C6CC6)CC5)nn4)cc3)OC(OC3C(O)C(N)CC(N)C3OC3OC(CN)C(O)C(O)C3N)C2O)C(N)C(O)C1O (stereo not drawn)
**Result** 12

**Query** Fill in the recorded MIC B. subtilis ATCC 6633 for this compound, with B. subtilis ATCC 6633 as test system: NCC1OC(OC2C(C(=O)Nc3ccc(-c4cn(CCCN5CCN(c6cc7c(cc6F)c(=O)c(C(=O)O)cn7C6CC6)CC5)nn4)cc3)OC(OC3C(O)C(N)CC(N)C3OC3OC(CN)C(O)C(O)C3N)C2O)C(N)C(O)C1O (stereo not drawn)
**Result** 6

**Query** Given the entry NCC1OC(OC2C(C(=O)NCc3cn(CC(O)CN4CCN(c5cc6c(cc5F)c(=O)c(C(=O)O)cn6C5CC5)CC4)nn3)OC(OC3C(O)C(N)CC(N)C3OC3OC(CN)C(O)C(O)C3N)C2O)C(N)C(O)C1O (stereo not drawn) , what MIC B. subtilis ATCC 6633 was observed with B. subtilis ATCC 6633?
**Result** 3

**Query** B. subtilis ATCC 6633 / MIC B. subtilis ATCC 6633 / NCC1OC(OC2C(C(=O)Nc3ccc(-c4cn(CCCCCCN5CCN(c6cc7c(cc6F)c(=O)c(C(=O)O)cn7C6CC6)CC5)nn4)cc3)OC(OC3C(O)C(N)CC(N)C3OC3OC(CN)C(O)C(O)C3N)C2O)C(N)C(O)C1O (stereo not drawn) : value?
**Result** 12

**Query** Give the reported MIC B. subtilis ATCC 6633 for NCC1OC(OC2C(C(=O)NCc3cn(CCCCCN4CCN(c5cc6c(cc5F)c(=O)c(C(=O)O)cn6C5CC5)CC4)nn3)OC(OC3C(O)C(N)CC(N)C3OC3OC(CN)C(O)C(O)C3N)C2O)C(N)C(O)C1O (stereo not drawn) (system: B. subtilis ATCC 6633).
**Result** 12
